Entry source: patent US9255094B2

Some molecules, each annotated with its measured inhibition at 0.1 µM.
TARGET_OR_SYSTEM: human recombinant serotonin (5-Hydroxytryptamine) 5-HT2C receptor (Homo sapiens)
Construct: expressed in transfected cells; host or cells: Chinese hamster ovary (CHO-K1) cells
Sequence (P28335 33-458): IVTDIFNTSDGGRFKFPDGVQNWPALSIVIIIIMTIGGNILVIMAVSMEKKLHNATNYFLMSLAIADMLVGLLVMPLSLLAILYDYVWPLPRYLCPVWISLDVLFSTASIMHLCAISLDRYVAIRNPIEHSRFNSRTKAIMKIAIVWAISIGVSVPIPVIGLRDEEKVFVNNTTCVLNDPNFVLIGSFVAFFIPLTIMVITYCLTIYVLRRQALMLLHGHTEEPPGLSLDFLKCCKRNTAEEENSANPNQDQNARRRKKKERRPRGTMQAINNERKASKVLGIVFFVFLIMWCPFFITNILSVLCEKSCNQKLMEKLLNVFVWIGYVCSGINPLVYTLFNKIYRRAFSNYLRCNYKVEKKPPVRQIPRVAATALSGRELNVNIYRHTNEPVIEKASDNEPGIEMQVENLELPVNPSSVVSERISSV
PROTOCOL: Serotonin 5-HT2C radioligand binding assay ([3H]Mesulergine)
CONDITION_DESCRIPTION: compound at 0.1 μM; 1 nM [3H]Mesulergine; CHO-K1 cells; read-out: Percent Inhibition of ligand binding, Serotonin (0.1 μM) 5-HT2C
Value expressed in %; do not type the unit.

Would you please look over these solved cases?
[
  {
    "MOLECULE": "CC[C@](O)(Cn1c2c(c3cc(C)ccc31)CN(C)CC2)c1ccncc1 [Compound 1-63]",
    "EXPERIMENTAL_RESULT": 25
  },
  {
    "MOLECULE": "Cc1ccc2c(c1)c1c(n2CC2(c3ccncc3)CC2)CCN(C)C1 [Compound 1-50]",
    "EXPERIMENTAL_RESULT": -1
  },
  {
    "MOLECULE": "Cc1ccc2c(c1)c1c(n2CC(C)(O)c2ccncc2)CC(C)N(C)C1 (stereo not drawn) [Compound 1-33]",
    "EXPERIMENTAL_RESULT": 56
  }
]

Given the entry CC(C)c1ccc2c3c(n(CC(C)(O)c4ccncc4)c2c1)CCN(C)C3 (stereo not drawn) [Compound 1-32] , report its measured inhibition at 0.1 µM.
-6

Next record, please: Cc1ccc2c(c1)c1c(n2CC(C)c2ccc(C)nc2)CC(C)N(C)C1 (stereo not drawn) [Compound 1-47]
70

COc1cccc2c3c(n(CC(C)(O)c4ccncc4)c12)CCN(C)C3 (stereo not drawn) [Compound 1-31] , same question.
5

Could you do the same for CC[C@@](O)(Cn1c2c(c3cc(C)ccc31)CN(C)CC2)c1ccncc1 [Compound 1-62] , please?
33

Next record, please: CCC(O)(Cn1c2c(c3cc(C)ccc31)CN(C)CC2)c1ccncc1 (stereo not drawn) [Compound 1-24]
8

Then this molecule: Cc1ccc2c(c1)c1c(n2CCc2ccc(C)nc2)CCN(CC(F)(F)F)C1 [Compound 1-65]
6
